The measured values listed here are drawn from patent US7994402B2.

- assayed system: A. thaliana protein molecule SEQ ID NO: 4 (His-tagged, from pMON63134) (Arabidopsis thaliana, UniProt Q9ZW18)
- Construct: His-tag (N); made in house; host or cells: E. coli (pET-28b vector, plasmid pMON63134)
- Sequence (Q9ZW18 1-268): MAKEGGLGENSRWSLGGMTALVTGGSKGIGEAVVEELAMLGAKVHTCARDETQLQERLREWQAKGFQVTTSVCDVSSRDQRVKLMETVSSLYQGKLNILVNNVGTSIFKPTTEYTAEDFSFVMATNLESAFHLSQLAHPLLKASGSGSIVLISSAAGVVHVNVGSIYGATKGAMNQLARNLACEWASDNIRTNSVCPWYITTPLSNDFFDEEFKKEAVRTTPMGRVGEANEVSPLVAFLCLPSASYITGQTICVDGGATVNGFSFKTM
- procedure details: Spectrophotometric reductase assay, consumption or production of NADPH at 340 nm
- Assay type: biochemical
- settings: 25 mM
reported endpoint: Activity (substrate)

Example entries begin here.
{"compound": "OCC1O[C@H](O)C(O)[C@@H](O)[C@@H]1O (stereo partly drawn) [D-Glucose]", "assay value": "No 25 mM"}
{"compound": "OCC(O)C(O)C(O)CO (stereo not drawn) [Arabinitol]", "assay value": "No 25 mM"}
{"compound": "OC[C@H]1O[C@@](CO)(O[C@H]2O[C@H](CO)[C@@H](O)[C@H](O)[C@H]2O)[C@@H](O)[C@@H]1O [Sucrose]", "assay value": "No 25 mM"}
{"compound": "O=C1OC(CO)[C@H](O)C(O)C1O (stereo partly drawn) [δ-gluconolactone]", "assay value": "No 25 mM"}
{"compound": "O=C1OC(CO)[C@@H](O)[C@H](O)C1O (stereo partly drawn) [Glucono 1,5 lactone]", "assay value": "No 25 mM"}

Next compound, please.
INPUT: // returns reported Activity (substrate) for input O=C(O)C(O)C(O)C(O)C(O)CO (stereo not drawn) [Potassium d-gluconate]
OUTPUT: No 25 mM
